# credit: PubChem BioAssay

Assay: inhibitors of TNFa-induced NFkB p65 translocation, primary screen, imaging, HUVEC, MLSMR starter and 10KST1 sets (AID 438);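 note: compound added about 3h40 before a 20 min TNFalpha stimulation; signal is the nuclear over cytoplasmic p65 intensity ratio per well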
Conditions: HUVEC TNFa-induced p65 nuclear translocation; at 2 µM, active compounds read high, 0% TNFa-plus-vehicle, 100% no-TNFa wells
experimental.readout: inhibition (%)
Respond with the bare value in %.

Challenge: Can you look up the measured inhibition of `Cc1ccc2c(c1)CCCN2C(=O)c1ccc2c(c1)OCO2` for me?
Response given: -0.6

Challenge: Can you look up the measured inhibition of `O=C(CCSc1ccccc1)N1CCOCC1` for me?
Response given: 0.4

Challenge: Can you look up the measured inhibition of CCC1CCCCN1CCCNC(=O)c1ccc(CS(=O)(=O)Cc2ccccc2F)o1 (configuration not stated) for me?
Response given: -20.5

Challenge: Can you look up the measured inhibition of Cc1ccc(-c2nnn(CC(=O)N(CC3CCCO3)C(C(=O)NC(C)(C)C)c3ccc(F)cc3)n2)o1 (configuration not stated) for me?
Response given: 5.7

Challenge: Can you look up the measured inhibition of Cc1cc2nc3c(nc2cc1C)C1(C(=O)O)CCC3(C)C1(C)C (configuration not stated) for me?
Response given: -12.3

Challenge: Can you look up the measured inhibition of `O=S(=O)(Cc1ccccc1)N1CCN(Cc2ccccc2)CC1` for me?
Response given: 4.8

Challenge: Can you look up the measured inhibition of `O=C(CCNC(=O)Cn1ccc2ccccc2c1=O)NCCN1CCc2ccccc2C1` for me?
Response given: 0.5

Challenge: Can you look up the measured inhibition of COC(=O)C1=C(C)OC(N)=C(C#N)C1c1ccccc1 (configuration not stated) for me?
Response given: 1.7

Challenge: Can you look up the measured inhibition of COc1cccc(OCC(O)CN2CCN(CCO)CC2)c1 (configuration not stated) for me?
Response given: -1

Challenge: Can you look up the measured inhibition of `COC(=O)c1cc2ccsc2n1CC(=O)Nc1cc(C)cc(C)c1` for me?
Response given: -9.5

Challenge: Can you look up the measured inhibition of `CCn1c(=O)cc(SCC(=O)NCCN2CCN(Cc3ccccc3)CC2)c2ccccc21` for me?
Response given: 4.3

Challenge: Can you look up the measured inhibition of `CCOC(=O)c1cc(CC)sc1NC(=O)COC` for me?
Response given: -6
